tested on: CP260; experiment: qHTS profiling for inhibitors of Plasmodium falciparum proliferation (AID 504749); also: nearly all actives have a fitted effect of over 60% in size; settings: P. falciparum in erythrocytes, SYBR Green DNA, 72 h; series mostly up to 28.7 µM
Records with an inconclusive call do not appear. Active and inactive are the calls of the source. Calls follow the shape of the dose curve; as a rule, active = well fitted inhibition curve with a large enough effect; inconclusive = small, poorly fitted or top-dose-only effect; inactive = flat fitted curve, though single readings scatter.
Valid outcomes are listed here; reply with one: 1.0 = active, 0.0 = inactive

Please review the entries below; each comes with its answer.
molecule="CCC1Nc2cc(Cl)c(S(N)(=O)=O)cc2S(=O)(=O)N1 (stereo not drawn)" measured_target=CP260 class=0.0
molecule="CCCCC(CC)COC(=O)c1ccc(N(C)C)cc1 (stereo not drawn)" measured_target=CP260 class=0.0
molecule=OC(C#CCN1CCCC1)(c1ccccc1)c1ccccc1 measured_target=CP260 class=1.0
molecule=CCCCCN=C(N)N/N=C/c1c[nH]c2ccc(OC)cc12 measured_target=CP260 class=1.0
molecule=O[C@@H](c1cc(C(F)(F)F)nc2c(C(F)(F)F)cccc12)[C@H]1CCCCN1 measured_target=CP260 class=1.0

What call does the record list for `CNCCc1ccccn1` ? 0.0

What call does the record list for `CN(Cc1ccc(C(C)(C)C)cc1)Cc1cccc2ccccc12` ? 0.0

What call does the record list for `OC[C@H]1O[C@@H]2O[C@H]3[C@H](O)[C@@H](O)[C@@H](O[C@H]4[C@H](O)[C@@H](O)[C@@H](O[C@H]5[C@H](O)[C@@H](O)[C@@H](O[C@H]6[C@H](O)[C@@H](O)[C@@H](O[C@H]7[C@H](O)[C@@H](O)[C@@H](O[C@H]8[C@H](O)[C@@H](O)[C@@H](O[C@H]1[C@H](O)[C@H]2O)O[C@@H]8CO)O[C@@H]7CO)O[C@@H]6CO)O[C@@H]5CO)O[C@@H]4CO)O[C@@H]3CO` ? 0.0

---

Test system: CRL-7250
Experiment: Cytotoxic Profiling of Annotated Libraries Using Quantitative High-Throughput Screening (AID 1296008); also: % is scaled to controls: 0 for no effect and ±100 for the full control effect; nearly all actives have a fitted effect of over 60% in size
Conditions: Five cell lines viability, CellTiter-Glo ATP luminescence, 48-72 h; active compounds read low
Method: Cell-based phenotypic screening is a commonly used approach to discover biological pathways, novel drug targets, chemical probes and high-quality hit-to-lead molecules. […] A pintool (Kalypsys) was used to transfer 23 nL of compound solution to the 1536-well assay plates. […] Plates were left at room temperature for 10 min before imaging the ATP-coupled luminescence using a ViewLux microplate imager (PerkinElmer, Waltham, MA).
Inconclusive results are not listed.
outcome-measure: max response (%)
Provide only the numeric value, understood in %.

compound=CC(=O)NCCCCCC(=O)O value_units=% observed_measurement=-1.79
compound="CC(=O)Nc1ccc(OCC(O)CNC(C)C)cc1 (stereo unspecified)" value_units=% observed_measurement=-5.23

Input `Cc1cc(-c2ccccc2)nnc1NCCN1CCOCC1` . Output max response: -17.2

Input `C#C[C@]1(OC(C)=O)CC[C@H]2[C@@H]3CCC4=C/C(=N/O)CC[C@@H]4[C@H]3CC[C@@]21CC` . Output max response: -7.16

Input `CC(C)=CCOc1ccc(/C=C/C(=O)c2ccc(OCC=C(C)C)cc2OCC(=O)O)cc1` . Output max response: -15.2

Input `COc1cc(C(=O)NCc2ccc(OCCN(C)C)cc2)cc(OC)c1OC` . Output max response: -8.61

Input `CCCCN=C(N)N=C(N)N` . Output max response: 1.78

Input `CCCCCCCCCCCCCCCCO` . Output max response: -12.4

Input `O=[N+]([O-])c1ccc(/C=N\O)o1` . Output max response: -1.03

Input `CC(=O)O[C@H]1C[C@@H]2CC[C@@H]3[C@H](CC[C@@]4(C)[C@H]3C[C@H]([N+]3(C)CCCCC3)[C@@H]4OC(C)=O)[C@@]2(C)C[C@@H]1N1CCCCC1` . Output max response: -0.866

Input `CN1CCN(c2c(F)cc3c(=O)c(C(=O)O)cn4c3c2SCC4)CC1` . Output max response: -2.29
